# TESTED TARGET: UniProt P17612
# EXPERIMENT NOTES: PKA peptide phosphorylation, Kinase-Glo Plus (KGP) assay, PKA-N-HiBiT
# Type: biochemical
# Set-up: containing amino acids Gly2-Phe351; His10 (N); made in house; host or cells: E. coli BL21(DE3)
# CONDITION INFO: PKA-N-HiBiT qHTS, Kinase-Glo Plus; average; read-out: PKA KGP Ave IC50
Where a name gives a salt, the structure may show the parent alone.
MEASURED PROPERTY: IC50 (µM)
Respond with the bare value in µM.

GET /values?readout=IC50&item= O=C(Nc1c[nH]nc1-c1nc2ccc(CN3CCOCC3)cc2[nH]1)NC1CC1 [AT9283]
0.861

GET /values?readout=IC50&item= N[C@H]1CC[C@H](Nc2nc(Nc3ccc(C(=O)N4CCCCC4)cc3)c3ncn(-c4cccc(F)c4)c3n2)CC1 [Purfalcamine]
30

GET /values?readout=IC50&item= Cc1n[nH]c2ccc(-c3cncc(OC[C@@H](N)Cc4c[nH]c5ccccc45)c3)cc12 [A-443654]
2.06

GET /values?readout=IC50&item= COc1cc(N2CCOCC2)ccc1Nc1ncc(Cl)c(Nc2ccccc2NS(C)(=O)=O)n1 [CZC 54252 HCl]
49.9

====

# TESTED TARGET: FLuc-C-HiBiT (firefly luciferase) (Photinus pyralis, UniProt P08659, form not given/L550V)
# Sequence (P08659 2-550 L550V, form open): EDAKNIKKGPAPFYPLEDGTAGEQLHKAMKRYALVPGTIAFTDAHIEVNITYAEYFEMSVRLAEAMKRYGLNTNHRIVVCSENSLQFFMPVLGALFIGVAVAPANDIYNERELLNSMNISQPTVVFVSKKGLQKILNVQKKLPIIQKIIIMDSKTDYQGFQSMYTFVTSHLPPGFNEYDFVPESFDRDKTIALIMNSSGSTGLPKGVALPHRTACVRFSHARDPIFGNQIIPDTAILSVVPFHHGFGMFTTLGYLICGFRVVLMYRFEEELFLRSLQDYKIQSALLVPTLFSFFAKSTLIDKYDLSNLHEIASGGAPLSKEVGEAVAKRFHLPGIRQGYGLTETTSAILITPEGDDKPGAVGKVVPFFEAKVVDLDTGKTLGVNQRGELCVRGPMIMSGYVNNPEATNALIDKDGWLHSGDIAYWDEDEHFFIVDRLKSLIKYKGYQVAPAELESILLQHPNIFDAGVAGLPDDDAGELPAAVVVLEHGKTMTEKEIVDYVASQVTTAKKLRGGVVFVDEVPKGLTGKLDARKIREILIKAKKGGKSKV
# EXPERIMENT NOTES: SDR assay, FLuc-C-HiBiT
# CONDITION INFO: + ATP; SDR max. response; clade S
MEASURED PROPERTY: % Activity (max response, + ATP) (%)
Respond with the bare value in %.

GET /values?readout=% Activity (max response, + ATP)&item= Cc1ccc(C2Cn3cnc(C(=O)N4CCC(C(=O)NCc5ccccc5Cl)CC4)c3CO2)cc1 (centres unmarked)
113.62

GET /values?readout=% Activity (max response, + ATP)&item= O=C(NC1CCCCCC1)C1CCN(C(=O)c2ncn3c2COC(c2ccc(F)cc2)C3)CC1 (centres unmarked)
14.91

GET /values?readout=% Activity (max response, + ATP)&item= Cc1ccc(C2Cn3cnc(C(=O)N4CCC(C(=O)NCCCc5ccccc5)CC4)c3CO2)cc1 (centres unmarked)
151.61

GET /values?readout=% Activity (max response, + ATP)&item= O=C(NCCc1ccccc1)C1CCN(C(=O)c2ncn3c2COC(c2ccccc2)C3)CC1 (centres unmarked)
379.45

GET /values?readout=% Activity (max response, + ATP)&item= CC(C)CCNC(=O)C1CCN(C(=O)c2ncn3c2COC(c2ccc(F)cc2)C3)CC1 (centres unmarked)
35.19

GET /values?readout=% Activity (max response, + ATP)&item= CCc1ccc(CNC(=O)C2CCN(C(=O)c3ncn4c3COC(c3ccc(F)cc3)C4)CC2)cc1 (centres unmarked)
20.00

GET /values?readout=% Activity (max response, + ATP)&item= O=C(Nc1ccc(F)c(Cl)c1)C1CCN(C(=O)c2ncn3c2COC(c2ccccc2)C3)CC1 (centres unmarked)
238.83

GET /values?readout=% Activity (max response, + ATP)&item= O=C(Nc1ccc(F)cc1)C1CCN(C(=O)c2ncn3c2COC(c2ccc(F)cc2)C3)CC1 (centres unmarked)
72.23

====

# TESTED TARGET: P. pyralis FLuc (Photinus pyralis)
# Sequence (P08659 whole entry): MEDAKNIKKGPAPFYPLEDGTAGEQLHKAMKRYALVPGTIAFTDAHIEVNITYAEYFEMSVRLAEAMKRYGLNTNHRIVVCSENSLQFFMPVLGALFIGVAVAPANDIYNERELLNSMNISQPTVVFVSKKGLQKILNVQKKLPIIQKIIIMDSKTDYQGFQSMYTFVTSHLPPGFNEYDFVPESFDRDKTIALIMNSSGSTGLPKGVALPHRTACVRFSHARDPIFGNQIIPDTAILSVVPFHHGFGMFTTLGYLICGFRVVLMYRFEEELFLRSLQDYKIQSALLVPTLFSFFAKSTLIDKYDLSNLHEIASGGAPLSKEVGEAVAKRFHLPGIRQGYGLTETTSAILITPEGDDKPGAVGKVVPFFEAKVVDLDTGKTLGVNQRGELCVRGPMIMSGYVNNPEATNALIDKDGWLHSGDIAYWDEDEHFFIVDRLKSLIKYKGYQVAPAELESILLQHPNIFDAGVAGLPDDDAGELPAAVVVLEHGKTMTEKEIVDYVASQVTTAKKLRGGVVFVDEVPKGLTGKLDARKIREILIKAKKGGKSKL
# EXPERIMENT NOTES: FLuc enzymatic luminescence assay, P. pyralis FLuc
# Format: biochemical
# CONDITION INFO: FLuc enzymatic assay; Clade S follow-up
MEASURED PROPERTY: pIC50 or pSDR50 FLuc E

GET /values?readout=pIC50 or pSDR50 FLuc E&item= O=C(NCc1ccncc1)C1CCN(C(=O)c2ncn3c2COC(c2ccc(F)cc2)C3)CC1 (stereo not drawn)
5.21

GET /values?readout=pIC50 or pSDR50 FLuc E&item= O=C(Nc1ccccc1)C1CCN(C(=O)c2ncn3c2COC(c2ccccc2)C3)CC1 (stereo not drawn)
5.86

GET /values?readout=pIC50 or pSDR50 FLuc E&item= CCOc1ccc(NC(=O)C2CCN(C(=O)c3ncn4c3COC(c3ccccc3)C4)CC2)cc1 (stereo not drawn)
5.36

GET /values?readout=pIC50 or pSDR50 FLuc E&item= O=C(NCc1cccc(F)c1)C1CCN(C(=O)c2ncn3c2COC(c2ccc(F)cc2)C3)CC1 (stereo not drawn)
5.01

GET /values?readout=pIC50 or pSDR50 FLuc E&item= O=C(Nc1ccc(F)c(Cl)c1)C1CCN(C(=O)c2ncn3c2COC(c2ccccc2)C3)CC1 (stereo not drawn)
6.16

GET /values?readout=pIC50 or pSDR50 FLuc E&item= O=C(NCCC1=CCCCC1)C1CCN(C(=O)c2ncn3c2COC(c2ccc(Cl)cc2)C3)CC1 (stereo not drawn)
4.91

GET /values?readout=pIC50 or pSDR50 FLuc E&item= Cc1ccc(C2Cn3cnc(C(=O)N4CCC(C(=O)NCc5cc(F)ccc5F)CC4)c3CO2)cc1 (stereo not drawn)
4.96

GET /values?readout=pIC50 or pSDR50 FLuc E&item= CCc1ccc(NC(=O)C2CCN(C(=O)c3ncn4c3COC(c3ccccc3)C4)CC2)cc1 (stereo not drawn)
5.16

GET /values?readout=pIC50 or pSDR50 FLuc E&item= CCc1cccc(NC(=O)C2CCN(C(=O)c3ncn4c3COC(c3ccccc3)C4)CC2)c1 (stereo not drawn)
5.76

GET /values?readout=pIC50 or pSDR50 FLuc E&item= COc1ccc(NC(=O)C2CCN(C(=O)c3ncn4c3COC(c3ccccc3)C4)CC2)cc1Cl (stereo not drawn)
6.36

GET /values?readout=pIC50 or pSDR50 FLuc E&item= CC(C)c1ccc(NC(=O)C2CCN(C(=O)c3ncn4c3COC(c3ccc(F)cc3)C4)CC2)cc1 (stereo not drawn)
4.86

GET /values?readout=pIC50 or pSDR50 FLuc E&item= O=C(Nc1ccc(F)cc1)C1CCN(C(=O)c2ncn3c2COC(c2ccccc2)C3)CC1 (stereo not drawn)
5.91

GET /values?readout=pIC50 or pSDR50 FLuc E&item= Cc1ccc(NC(=O)C2CCN(C(=O)c3ncn4c3COC(c3ccccc3)C4)CC2)cc1C (stereo not drawn)
5.01

GET /values?readout=pIC50 or pSDR50 FLuc E&item= Cc1ccc(C2Cn3cnc(C(=O)N4CCC(C(=O)NCCc5ccccc5)CC4)c3CO2)cc1 (stereo not drawn)
4.91

GET /values?readout=pIC50 or pSDR50 FLuc E&item= O=C(Nc1ccc(F)c(F)c1)C1CCN(C(=O)c2ncn3c2COC(c2ccc(F)cc2)C3)CC1 (stereo not drawn)
4.96

GET /values?readout=pIC50 or pSDR50 FLuc E&item= Cc1ccc(C2Cn3cnc(C(=O)N4CCC(C(=O)NC5CCCC5)CC4)c3CO2)cc1 (stereo not drawn)
4.96

GET /values?readout=pIC50 or pSDR50 FLuc E&item= Cc1ccc(C2Cn3cnc(C(=O)N4CCC(C(=O)NCCC5=CCCCC5)CC4)c3CO2)cc1 (stereo not drawn)
5.01

GET /values?readout=pIC50 or pSDR50 FLuc E&item= Cc1ccc(NC(=O)C2CCN(C(=O)c3ncn4c3COC(c3ccc(F)cc3)C4)CC2)c(F)c1 (stereo not drawn)
4.96

GET /values?readout=pIC50 or pSDR50 FLuc E&item= Cc1ccc(C2Cn3cnc(C(=O)N4CCC(C(=O)NCc5cccc(F)c5)CC4)c3CO2)cc1 (stereo not drawn)
5.01

GET /values?readout=pIC50 or pSDR50 FLuc E&item= O=C(Nc1ccc(Cl)cc1)C1CCN(C(=O)c2ncn3c2COC(c2ccccc2)C3)CC1 (stereo not drawn)
5.81

GET /values?readout=pIC50 or pSDR50 FLuc E&item= Cc1ccc(C2Cn3cnc(C(=O)N4CCC(C(=O)NCc5cccc(Cl)c5)CC4)c3CO2)cc1 (stereo not drawn)
4.91

GET /values?readout=pIC50 or pSDR50 FLuc E&item= Cc1ccc(NC(=O)C2CCN(C(=O)c3ncn4c3COC(c3ccc(F)cc3)C4)CC2)c(C)c1 (stereo not drawn)
4.96

GET /values?readout=pIC50 or pSDR50 FLuc E&item= Cc1cc(C)cc(NC(=O)C2CCN(C(=O)c3ncn4c3COC(c3ccccc3)C4)CC2)c1 (stereo not drawn)
5.46

GET /values?readout=pIC50 or pSDR50 FLuc E&item= COc1ccc(CNC(=O)C2CCN(C(=O)c3ncn4c3COC(c3ccc(C)cc3)C4)CC2)cc1 (stereo not drawn)
4.96

GET /values?readout=pIC50 or pSDR50 FLuc E&item= Cc1cccc(CNC(=O)C2CCN(C(=O)c3ncn4c3COC(c3ccc(F)cc3)C4)CC2)c1 (stereo not drawn)
4.91

GET /values?readout=pIC50 or pSDR50 FLuc E&item= O=C(Nc1ccc(F)c(F)c1)C1CCN(C(=O)c2ncn3c2COC(c2ccccc2)C3)CC1 (stereo not drawn)
6.11

GET /values?readout=pIC50 or pSDR50 FLuc E&item= Cc1cccc(NC(=O)C2CCN(C(=O)c3ncn4c3COC(c3ccccc3)C4)CC2)c1 (stereo not drawn)
5.66

GET /values?readout=pIC50 or pSDR50 FLuc E&item= O=C(NCc1ccccc1F)C1CCN(C(=O)c2ncn3c2COC(c2ccc(Cl)cc2)C3)CC1 (stereo not drawn)
4.91

GET /values?readout=pIC50 or pSDR50 FLuc E&item= COc1ccc(NC(=O)C2CCN(C(=O)c3ncn4c3COC(c3ccccc3)C4)CC2)cc1 (stereo not drawn)
5.06

GET /values?readout=pIC50 or pSDR50 FLuc E&item= Cc1ccc(C2Cn3cnc(C(=O)N4CCC(C(=O)NCc5ccc(F)cc5F)CC4)c3CO2)cc1 (stereo not drawn)
5.01
